System: human colon cancer cells Sw620
Experiment: MTT in vitro cell growth inhibition, human colon cancer cells Sw620 (48 h)
Assay type: cell-based
Conditions: SW-620
Procedure: Human breast cancer cell MCF-7, hepatocellular carcinoma cell HepG2, lung adenocarcinoma cell A549 were purchased from Shanghai Cell Bank of Chinese Academy of Sciences. […] 4. Remove the 96-well plate from the incubator, carefully aspirate the medium in the wells with a micropipette, and add 150 μl of dimethyl sulfoxide to each well, shake to dissolve the crystals completely, and then measure the absorbance OD value using an enzyme counter at 492 nm. […]
readoutLabel: IC50 (nM)
Quick note: give the figure in nM, leave out the unit.

Some molecules with recorded IC50:
COC(=O)C[C@](O)(CCCC(C)(C)O)C(=O)O[C@@H]1C(OC)=C[C@]23CCCN2CCc2cc4c(cc2[C@H]13)OCO4 [HHT, homoharringtonine, reference compound] | 35
COC1=C[C@]23CCCN2CCc2cc4c(cc2[C@@H]3[C@@H]1OC(=O)C(O)(C/C=N/OC(=O)[C@H](C)c1ccc2cc(OC)ccc2c1)CCC(C)C)OCO4 (stereo partly drawn) | 3.4

Now for another entry.
Prompt line: Need IC50 of COC(=O)C[C@](O)(CCc1cccc(NC(=O)NC2CCCC2)c1)C(=O)O[C@@H]1C(OC)=C[C@]23CCCN2CCc2cc4c(cc2C13)OCO4 (stereo partly drawn) , thanks.
Response line: 12
